meta.source: patent US5972890A

- method.description: Plasma decay of 125I-labelled synthetic peptide after ear vein injection
- Format: in vivo, rabbit
- run.conditions: from one hour to four hours after injection
Ends that are not written are not given here.
endpoint.name: additional fall of plasma level over the next three hours (%)
Give your result in % as a bare value.

Examples from the recorded data:
Ac-YAKFRETLEDTRDRMY-NH2 [SP-15a]: 1
YAALDLNAVANKIADFEL-NH2 [SP-17]: 1
Ac-YRALVDTEFKVKQEAGAK-NH2 [SP-21a]: 1
YVPGVGVPGVGVPGVGVPGVG-NH2 [SP-30]: 1
YVGVAPGVGVAPGVGVAPG [SP-28]: 1
Ac-YVLDEFREKLNEELEALKQK-NH2 [SP-34a]: 1

Shift focus to the following entry.
Please report the recorded additional fall of plasma level over the next three hours for Ac-YRALVDTLKFVTEQAKGA-NH2 [SP-19a] .
1
